Tested on: Cavia porcellus
measurement_description: Antipruritic activity in Cavia porcellus (guinea pig) histamine phosphate-induced itching model assessed as increase of total amount of histamine phosphate level at 50 mg/kg, administered 1 hr before histamine phosphate challenge with food relative to levocetirizine
Type: functional
assay_endpoint: Activity (%)
Give just the number in %; leave the unit off.

mol_smiles | Activity [%]
Cc1cc(C)nc(NS(=O)(=O)c2ccc(NCCCN3CCN([C@H](c4ccccc4)c4ccc(Cl)cc4)CC3)cc2)n1 | -0.15
O=S(=O)(Nc1nccs1)c1ccc(NCCCN2CCN([C@H](c3ccccc3)c3ccc(Cl)cc3)CC2)cc1 | -18.04
O=S(=O)(Nc1ncccn1)c1ccc(NCCN2CCN([C@H](c3ccccc3)c3ccc(Cl)cc3)CC2)cc1 | 217.8
Cc1cc(C)nc(NS(=O)(=O)c2ccc(NCCN3CCN([C@H](c4ccccc4)c4ccc(Cl)cc4)CC3)cc2)n1 | -60.28
Nc1ccc(S(=O)(=O)NCCCN2CCN([C@H](c3ccccc3)c3ccc(Cl)cc3)CC2)cc1 | 107.15

Quick one: Activity for Nc1ccc(S(=O)(=O)N(CCCN2CCN([C@H](c3ccccc3)c3ccc(Cl)cc3)CC2)c2ccc(Cl)nn2)cc1 ? 10.1

Quick one: Activity for O=S(=O)(Nc1ccc(Cl)nn1)c1ccc(NCCCN2CCN([C@H](c3ccccc3)c3ccc(Cl)cc3)CC2)cc1 ? 82.74

Quick one: Activity for O=S(=O)(Nc1ccc(Cl)nn1)c1ccc(NCCN2CCN([C@H](c3ccccc3)c3ccc(Cl)cc3)CC2)cc1 ? 103.46

Quick one: Activity for O=S(=O)(Nc1ncccn1)c1ccc(NCCCN2CCN([C@H](c3ccccc3)c3ccc(Cl)cc3)CC2)cc1 ? 39.93

Quick one: Activity for COc1ccc(NS(=O)(=O)c2ccc(NCCCN3CCN([C@H](c4ccccc4)c4ccc(Cl)cc4)CC3)cc2)nn1 ? 43.42

Quick one: Activity for Nc1ccc(S(=O)(=O)N(CCN2CCN([C@H](c3ccccc3)c3ccc(Cl)cc3)CC2)c2nccs2)cc1 ? 9.4

Quick one: Activity for COc1ccc(NS(=O)(=O)c2ccc(NCCN3CCN([C@H](c4ccccc4)c4ccc(Cl)cc4)CC3)cc2)nn1 ? -21.49

Quick one: Activity for O=C(O)CNCCCN1CCN([C@H](c2ccccc2)c2ccc(Cl)cc2)CC1 ? 22.71

Quick one: Activity for Nc1ccc(S(=O)(=O)NCCN2CCN([C@H](c3ccccc3)c3ccc(Cl)cc3)CC2)cc1 ? 2.55

Quick one: Activity for Nc1ccc(S(=O)(=O)N(CCN2CCN([C@H](c3ccccc3)c3ccc(Cl)cc3)CC2)c2ccc(Cl)nn2)cc1 ? -78
